Assay: Plasma pharmacokinetics after single and multiple daily dosing
Conditions: human, in vivo, 0.025 mg, AUC0–t, mean (SD)
REPORTED METRIC: AUC(0-t) (ng·h/mL)
Numbers only; they are read as ng·h/mL.

For Cn1ncnc1[C@H]1c2n[nH]c(=O)c3cc(F)cc(c23)N[C@@H]1c1ccc(F)cc1 , what is its reported AUC(0-t)?
3.6

---

Experiment: Plasma pharmacokinetics after single and multiple daily dosing
Conditions: human, in vivo, 0.2 mg, Cmax, mean (SD)
REPORTED METRIC: Cmax (ng/mL)
A number alone suffices; assume ng/mL.

Item under review: Cn1ncnc1[C@H]1c2n[nH]c(=O)c3cc(F)cc(c23)N[C@@H]1c1ccc(F)cc1 [talazoparib] . Reported Cmax?
0.788

---

Assay: Plasma pharmacokinetics after single and multiple daily dosing
Settings: human, in vivo, 0.2 mg, Vz/F, mean (SD)
REPORTED METRIC: Vd/F (L)
Form entry: value (L) — number only.

Tell me the measured Vd/F of Cn1ncnc1[C@H]1c2n[nH]c(=O)c3cc(F)cc(c23)N[C@@H]1c1ccc(F)cc1 , please.
678

---

Assay: Plasma pharmacokinetics after single and multiple daily dosing
Details: human, in vivo, 0.025 mg, AUC0–24, mean (SD)
REPORTED METRIC: AUC(0-t)
Just so you know, I need the unit written after the number.

Which value of AUC(0-t) has been reported for Cn1ncnc1[C@H]1c2n[nH]c(=O)c3cc(F)cc(c23)N[C@@H]1c1ccc(F)cc1 in the records?
0.952 ng·h/mL

---

Assay: Plasma pharmacokinetics after single and multiple daily dosing
Conditions: human, in vivo, 0.9 mg, Cmax, mean (SD)
REPORTED METRIC: Cmax (ng/mL)
Please respond with the number in ng/mL and leave the unit unwritten.

What does the record list as Cmax for Cn1ncnc1[C@H]1c2n[nH]c(=O)c3cc(F)cc(c23)N[C@@H]1c1ccc(F)cc1 [talazoparib] ?
6.1

---

Experiment: Plasma pharmacokinetics after single and multiple daily dosing
Details: human, in vivo, 0.6 mg, AUC0–24, mean (SD)
REPORTED METRIC: AUC(0-t) (ng·h/mL)
Write the answer as a number in ng·h/mL, unit excluded.

# query: AUC(0-t) of entry Cn1ncnc1[C@H]1c2n[nH]c(=O)c3cc(F)cc(c23)N[C@@H]1c1ccc(F)cc1
37.9

---

Assay: Plasma pharmacokinetics after single and multiple daily dosing
Details: human, in vivo, 0.025 mg, Cmax, mean (SD)
REPORTED METRIC: Cmax (ng/mL)
Response body: numeric value in ng/mL, unit text excluded.

Can you look up the measured Cmax of Cn1ncnc1[C@H]1c2n[nH]c(=O)c3cc(F)cc(c23)N[C@@H]1c1ccc(F)cc1 [talazoparib] for me?
0.06

---

Experiment: Plasma pharmacokinetics after single and multiple daily dosing
Settings: human, in vivo, 0.1 mg, AUC0–24, mean (SD)
REPORTED METRIC: AUC(0-t)

What does the data say about its AUC(0-t)? Entry: Cn1ncnc1[C@H]1c2n[nH]c(=O)c3cc(F)cc(c23)N[C@@H]1c1ccc(F)cc1
3.16 ng·h/mL

---

Assay: Plasma pharmacokinetics after single and multiple daily dosing
Conditions: human, in vivo, 0.6 mg, Tmax, median (min, max)
REPORTED METRIC: Tmax (min)
Note: unit min is implicit; provide only the numeric part.

Endpoint output: Tmax of Cn1ncnc1[C@H]1c2n[nH]c(=O)c3cc(F)cc(c23)N[C@@H]1c1ccc(F)cc1 . Value?
50.1

---

Test: Plasma pharmacokinetics after single and multiple daily dosing
Conditions: human, in vivo, 0.6 mg, t1/2, mean (SD)
REPORTED METRIC: half-life
// unit must come after the numeric part

Quick check: half-life of Cn1ncnc1[C@H]1c2n[nH]c(=O)c3cc(F)cc(c23)N[C@@H]1c1ccc(F)cc1 ?
58.6 h

---

Assay: Plasma pharmacokinetics after single and multiple daily dosing
Settings: human, in vivo, 1 mg
REPORTED METRIC: AUC(0-inf)

Given Cn1ncnc1[C@H]1c2n[nH]c(=O)c3cc(F)cc(c23)N[C@@H]1c1ccc(F)cc1 [talazoparib] , state its recorded AUC(0-inf).
200 ng·h/mL

---

Experiment: Plasma pharmacokinetics after single and multiple daily dosing
Conditions: human, in vivo, 1 mg, AUC0–t, mean (SD)
REPORTED METRIC: AUC(0-t) (ng·h/mL)
Lab book: enter the figure in ng·h/mL, no units written.

# get_value(readout='AUC(0-t)', item= Cn1ncnc1[C@H]1c2n[nH]c(=O)c3cc(F)cc(c23)N[C@@H]1c1ccc(F)cc1 )
182

---

Test: Plasma pharmacokinetics after single and multiple daily dosing
Settings: human, in vivo, 0.05 mg, AUC0–t, mean (SD)
REPORTED METRIC: AUC(0-t) (ng·h/mL)
Just the number in ng·h/mL, nothing appended.

For the compound Cn1ncnc1[C@H]1c2n[nH]c(=O)c3cc(F)cc(c23)N[C@@H]1c1ccc(F)cc1 , what AUC(0-t) is on record?
5.34

---

Experiment: Plasma pharmacokinetics after single and multiple daily dosing
Settings: human, in vivo, 0.05 mg
REPORTED METRIC: AUC(0-inf) (ng·h/mL)
Quick note: give the figure in ng·h/mL, leave out the unit.

Request the reported AUC(0-inf) associated with Cn1ncnc1[C@H]1c2n[nH]c(=O)c3cc(F)cc(c23)N[C@@H]1c1ccc(F)cc1 [talazoparib]
8.32

---

Assay: Plasma pharmacokinetics after single and multiple daily dosing
Conditions: human, in vivo, 0.4 mg, t1/2, mean (SD)
REPORTED METRIC: half-life
Enter the number, and then the unit.

Item Cn1ncnc1[C@H]1c2n[nH]c(=O)c3cc(F)cc(c23)N[C@@H]1c1ccc(F)cc1 has what recorded half-life?
102 h

---

Test: Plasma pharmacokinetics after single and multiple daily dosing
Settings: human, in vivo, 0.1 mg, t1/2, mean (SD)
REPORTED METRIC: half-life (h)
Express the result in h but write the number alone.

Entry under review: Cn1ncnc1[C@H]1c2n[nH]c(=O)c3cc(F)cc(c23)N[C@@H]1c1ccc(F)cc1 . Reported half-life?
229

---

Test: Plasma pharmacokinetics after single and multiple daily dosing
Conditions: human, in vivo, 0.9 mg
REPORTED METRIC: AUC(0-inf) (ng·h/mL)
Report the value in ng·h/mL with no unit label.

Reported AUC(0-inf) for Cn1ncnc1[C@H]1c2n[nH]c(=O)c3cc(F)cc(c23)N[C@@H]1c1ccc(F)cc1 [talazoparib] : what is it?
188

---

Test: Plasma pharmacokinetics after single and multiple daily dosing
Settings: human, in vivo, 1.1 mg, t1/2, mean (SD)
REPORTED METRIC: half-life (h)
The reply should contain only the number, in h.

# half-life lookup, item Cn1ncnc1[C@H]1c2n[nH]c(=O)c3cc(F)cc(c23)N[C@@H]1c1ccc(F)cc1 [talazoparib]
71

---

Assay: Plasma pharmacokinetics after single and multiple daily dosing
Settings: human, in vivo, 0.9 mg, t1/2, mean (SD)
REPORTED METRIC: half-life
Please answer using a numeric value trailed by its unit.

Give its half-life value. Item: Cn1ncnc1[C@H]1c2n[nH]c(=O)c3cc(F)cc(c23)N[C@@H]1c1ccc(F)cc1 [talazoparib]
2.52 days

---

Test: Plasma pharmacokinetics after single and multiple daily dosing
Conditions: human, in vivo, 0.1 mg, Cmax, mean (SD)
REPORTED METRIC: Cmax (ng/mL)
Give the value in ng/mL but do not write ng/mL after it.

Query (compound): Cn1ncnc1[C@H]1c2n[nH]c(=O)c3cc(F)cc(c23)N[C@@H]1c1ccc(F)cc1 ; field requested: Cmax
0.214

---

Assay: Plasma pharmacokinetics after single and multiple daily dosing
Conditions: human, in vivo, 0.2 mg, AUC0–t, mean (SD)
REPORTED METRIC: AUC(0-t) (µg·h/mL)
Just the number in µg·h/mL, nothing appended.

Would you mind telling me what AUC(0-t) value was observed for Cn1ncnc1[C@H]1c2n[nH]c(=O)c3cc(F)cc(c23)N[C@@H]1c1ccc(F)cc1 ?
0.0393

---

Experiment: Plasma pharmacokinetics after single and multiple daily dosing
Conditions: human, in vivo, 0.025 mg
REPORTED METRIC: AUC(0-inf) (ng·h/mL)
I only need the number, in ng·h/mL, no unit after it.

Fill in the blank: the reported AUC(0-inf) of Cn1ncnc1[C@H]1c2n[nH]c(=O)c3cc(F)cc(c23)N[C@@H]1c1ccc(F)cc1 [talazoparib] is ____.
5.33

---

Experiment: Plasma pharmacokinetics after single and multiple daily dosing
Conditions: human, in vivo, 0.1 mg, Vz/F, mean (SD)
REPORTED METRIC: Vd/F (L)
# output: bare number, implied unit L

Any idea what Vd/F was measured for Cn1ncnc1[C@H]1c2n[nH]c(=O)c3cc(F)cc(c23)N[C@@H]1c1ccc(F)cc1 [talazoparib] ?
839

---

Assay: Plasma pharmacokinetics after single and multiple daily dosing
Details: human, in vivo, 0.1 mg, Tmax, median (min, max)
REPORTED METRIC: Tmax (h)
# output: bare number, implied unit h

# Tmax lookup, item Cn1ncnc1[C@H]1c2n[nH]c(=O)c3cc(F)cc(c23)N[C@@H]1c1ccc(F)cc1
1.02
